molecular target: PDI (Homo sapiens, UniProt P07237)
Sequence (P07237 18-508): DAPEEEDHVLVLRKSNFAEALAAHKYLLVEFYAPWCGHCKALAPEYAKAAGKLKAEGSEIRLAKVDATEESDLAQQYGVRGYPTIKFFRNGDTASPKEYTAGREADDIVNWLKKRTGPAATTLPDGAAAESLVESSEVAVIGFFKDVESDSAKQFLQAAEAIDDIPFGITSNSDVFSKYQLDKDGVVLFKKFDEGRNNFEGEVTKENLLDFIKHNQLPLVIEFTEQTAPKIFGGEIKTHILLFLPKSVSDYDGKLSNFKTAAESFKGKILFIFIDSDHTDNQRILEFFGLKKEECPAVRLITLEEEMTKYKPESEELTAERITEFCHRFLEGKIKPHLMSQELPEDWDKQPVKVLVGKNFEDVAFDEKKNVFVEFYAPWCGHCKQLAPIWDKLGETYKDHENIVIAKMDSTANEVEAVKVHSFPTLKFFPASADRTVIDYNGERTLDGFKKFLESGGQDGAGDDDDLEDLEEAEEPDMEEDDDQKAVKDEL
pIC50: −log10 of the molar value.
READOUT NAME: pIC50

query: pIC50 lookup needed for CCOC(=O)c1c(CNCCN(CC)CC)n(-c2ccccc2)c2cc(Br)c(O)cc12 , thanks.
result: ~5.92
